Catalogue of protein stability index readings, one per entry.
# Assay remarks: protein stability index of a GFP-peptide fusion (GPS, HEK-293T) (PSI 1-6); higher = more stable;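 note: 24-mer peptide tiles fused after GFP, lentivirally expressed, FACS-sorted into six equal bins by GFP/DsRed ratio, decoded by Illumina sequencing, PSI is the read-weighted mean bin number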
# Cond: treatment: DMSO; c terminus: a fixed tail appended
The reply should be a number, written without any unit.

SSNHGCQHECVNTDDSYSCHCLKG [MATN2]
4.95

[Q] Quick one: protein stability index for EAEEEKGEKEEEDKDDEEKPKIED [HSP90AB1] ?
[A] 5.55

[Q] VTSYCRSATLVGFTVGSVLGQILV [SLC19A2] , same question.
[A] 3.5

[Q] NHLLHHFVIGHLKGAPASWWNHMH [FADS1] , same question.
[A] 2.36

[Q] GYDGLNILNSVEKYDPHTGHWTNV [KLHL12] , same question.
[A] 2.75

[Q] SAVQYFQFYGYLSQQQNMMQDYVR [CARM1] , same question.
[A] 2.6

[Q] AAGVDHVILAVSYMSQVLEKEMKA [GMPPB] , same question.
[A] 2.25

[Q] KINLQGDIVDRGSTNLGVNQAGFT [ADD1] , same question.
[A] 3.74

[Q] YISRKYFATRPGAIETAMEDLKGH [TPRG1] , same question.
[A] 2.73

[Q] NGVLLCFYSQEWYARQHCPLKNPT [SOAT1] , same question.
[A] 2.81

[Q] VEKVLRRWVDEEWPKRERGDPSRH [EDARADD] , same question.
[A] 2.97

* * *

Catalogue of protein stability index readings, one per entry.
# Assay remarks: protein stability index of a GFP-peptide fusion (GPS, HEK-293T) (PSI 1-6); higher = more stable
# Cond: treatment: MLN4924 1 uM, 8 h; c terminus: a fixed tail appended
The reply should be a number, written without any unit.

EQQNQEYKILLDVKTRLEQEIATY [KRT17]
3.59
ESYFTTRTYGEPESAGPSRAVRQS [EMD]
4.57
FLTAPLLEFLLALYFLFADAMQLN [CMTM3]
3.17
EAPASVVPFVRVKREREVDEDSEP [USP39]
5.51
IRMIQEEKESTELRAEEIETRVTS [PPFIA4]
5.21
LLDDSKTWWRVRNAANRTGYVPSN [NCK2]
2.79

[Q] Quick one: protein stability index for CVLTTPCLTQSTAAPAVRASSSPV [SLA] ?
[A] 3.49

[Q] WNPDARYSEHFLQEAKLLHWNGRH [GLT8D2] , same question.
[A] 2.67

[Q] EKEKHVNQLQTKVAVLEQEIKDKD [SASS6] , same question.
[A] 5.53

[Q] FDPLPPSDTIYSYVRPERLSPISH [TCF25] , same question.
[A] 3.14

[Q] LDEQNKRPCRKFLLTGQCDFGSNC [ZMAT5] , same question.
[A] 3.32

[Q] KINLQGDIVDRGSTNLGVNQAGFT [ADD1] , same question.
[A] 3.83

[Q] ETAEEVSARIVQVVTAEAVAVLKG [MAP2] , same question.
[A] 3.45

* * *

# Assay remarks: protein stability index of a GFP-peptide fusion (GPS, HEK-293T) (PSI 1-6); higher = more stable
# Cond: treatment: MLN4924 1 uM, 8 h; c terminus: a fixed tail appended
Catalogue of protein stability index readings, one per entry.
The reply should be a number, written without any unit.

Consider the worked cases shown below.
YLSQTDGAGDWREKEAKDLTELVQ [FUT8]
4.7
YRQKKRAEQEALTGECKELEKKNE [ATF4]
5.59
HGRGTEVLLEEPLPLETARESPSF [ZNF263]
4.81

[Q] Quick one: protein stability index for RGVDVSLQGKDAWLPLHYAAWQGH [RIPK4] ?
[A] 2.45

[Q] SEWQRKLEAAEALLTLRNSAQAPP [DMRTC1] , same question.
[A] 4.63
